# System: Cutaneous Bacteria
# method description: In vitro zone of inhibition screening, overall (cutaneous bacteria)
# Format: cell-based
# test conditions: in vitro antibacterial testing; lowest MIC
measured metric: minimum inhibitory concentrations as low as (%)

[
  {
    "molecule": "CN(C)CCOC(c1ccccc1)c1ccccc1 [Dimenhydrinate, dimenhydrinate]",
    "experimental system": "Cutaneous Bacteria",
    "recorded number": 0.5
  },
  {
    "molecule": "CN(C)CCOC(c1ccccc1)c1ccccc1 [Diphenhydramine, diphenhydramine]",
    "experimental system": "Cutaneous Bacteria",
    "recorded number": 0.25
  }
]

* * *

# Test system: Cutaneous Bacteria
# method description: In vitro zone of inhibition screening, overall (cutaneous bacteria)
# Type: cell-based
# test conditions: in vitro antibacterial testing; lowest MIC
measured metric: minimum inhibitory concentrations as low as

[
  {
    "molecule": "CN(C)CCN(Cc1ccccc1)c1ccccn1 [Tripelennamine, tripelennamine]",
    "result": "0.5-1%"
  },
  {
    "molecule": "CN(C)CCC(c1ccc(Br)cc1)c1ccccn1 (stereo not drawn) [Brompheniramine, brompheniramine]",
    "result": "0.5-1%"
  },
  {
    "molecule": "Cc1ccc(/C(=C\\CN2CCCC2)c2ccccn2)cc1 [Triprolidine, triprolidine]",
    "result": "0.5-1%"
  }
]
